# assayed-target: Bromodomain-containing protein 4 (Homo sapiens, UniProt O60885)
# measurement-protocol: Inhibition of BRD4 bromodomain-1 (unknown origin) by AlphaScreen assay
# test-parameters: read-out: pIC50 (converted)
recorded-endpoint: IC50 (µM)

smiles-string	assayed-target	measured-value
Cc1noc(C)c1-c1ccc2ncn(Cc3cccc(F)c3)c2c1	Bromodomain-containing protein 4 (Homo sapiens, UniProt O60885)	0.631

[1] COc1ccc(Cn2c(C)nc3ccc(-c4c(C)noc4C)cc32)cc1
[2] Cc1noc(C)c1-c1ccc2cc[nH]c2c1
# argmax over IC50 for candidates 1 and 2 Please identify the chosen entry by its label.
2

Cited source: ChEMBL document CHEMBL3217564
